# System: ACHN
# Experiment Description: NCI tumour cell line growth inhibition, 48 h
Calls of active or inactive are those of the source. Rule as the data show it: active = GI50 up to about 1.1 µM and inactive = higher. Peptide text beside a SMILES is read from it. * marks the point of attachment. Boc = CC(C)(C)OC(=O)*
One label from this list, please: 1.0 (active), 0.0 (inactive)

[in] Per the records of this test, what outcome belongs to `Cc1nc(-[n+]2nc(-c3ccncc3)nn2-c2ccccc2)sc1C` ?
[out] 0.0

[in] Per the records of this test, what outcome belongs to `COC(=O)/C=C1/OC(c2ccc(C)cc2C)=CC1=O` ?
[out] 0.0

[in] Per the records of this test, what outcome belongs to `Cc1ccc(Nc2nc(C)c(C(/C=C/c3ccc4c(c3)OCO4)=N/Nc3ccc([N+](=O)[O-])cc3[N+](=O)[O-])s2)c([N+](=O)[O-])c1` ?
[out] 0.0

[in] Per the records of this test, what outcome belongs to COC(=O)C(Cc1c[nH]c2ccccc12)NC(=O)C(Cc1c[nH]c2ccccc12)NC(=O)C(Cc1c[nH]c2ccccc12)NC(=O)C(Cc1c[nH]c2ccccc12)NC(=O)C(Cc1c[nH]c2ccccc12)NC(=O)OC(C)(C)C (stereo not given) (Boc-WWWWW-OMe; configuration not given here) ?
[out] 0.0

[in] Per the records of this test, what outcome belongs to `Cc1cc(=O)oc2cc(O)c(CN(C)CC(=O)O)cc12` ?
[out] 0.0

[in] Per the records of this test, what outcome belongs to CC1(C)C2CCC1(C)C(N/C(Sc1ccccc1)=C(/C(Cl)=C(Cl)Cl)[N+](=O)[O-])C2 (stereo not given) ?
[out] 0.0

[in] Per the records of this test, what outcome belongs to `N#C/C(=C1\SC(C(N)=O)=C(N)N1c1ccccc1)c1nc2ccccc2[nH]1` ?
[out] 0.0

[in] Per the records of this test, what outcome belongs to NC(=O)C(=O)C1C(=O)N(c2ccccc2)N=C1N (stereo not given) ?
[out] 0.0

[in] Per the records of this test, what outcome belongs to `COc1ccc2c(c1)c1nn(CCN(C)C)c3ccc4c(=O)n(CCN(C)C)c(=O)n2c4c13` ?
[out] 1.0

[in] Per the records of this test, what outcome belongs to `COc1cc2c(cc1OC)C(=O)/C(=C/c1cc(Cl)cc(Cl)c1)C2` ?
[out] 0.0
